experiment: Drug stability in human liver microsomes
Format: in vitro ADME
Reported half-life values are given for each entry in this list.
# number only, unit min dropped from output

Illustrative cases are given below, each with its answer.
[[record]]
compound = "[2H]C([2H])(Oc1ccc2c(c1)[C@]1(CCN(C)CC=C)CCCC[C@@H]1C=C2)C(F)F [CNS23-D2]"
uom = "min"
value = 32

[[record]]
compound = "[2H]C([2H])(Oc1ccc2c(c1)[C@]13CCCC[C@@H]1[C@H](C2)N(C)CC3)C(F)F [CNS1-D2]"
uom = "min"
value = 123

[[record]]
compound = "COc1ccc2c(c1)[C@]13CCCC[C@@H]1[C@H](C2)N(C)CC3 [Dextromethorphan (DM), reference compound]"
uom = "min"
value = 35


Could you now look at the following compound, please?
## Input # query: half-life of entry C=CCN(C)CC[C@@]12CCCC[C@@H]1C=Cc1ccc(OC)cc12 [CNS22]
## Output 36

* * *

measured.target: phencyclidine site of NMDA-type glutamate receptors
experiment: NMDA receptor (phencyclidine site) radioligand binding inhibition
pKi: recorded values
Note on units: pKi is unitless, being -log10 of a concentration expressed in mol/L.

[[record]]
compound = "[2H]C([2H])(Oc1ccc2c(c1)[C@]13CCCC[C@@H]1[C@H](C2)N(C([2H])([2H])[2H])CC3)C(F)F"
value = 5.00

[[record]]
compound = "COc1ccc2c(c1)[C@]13CCCC[C@@H]1[C@H](C2)N(C)CC3 [Dextromethorphan (DM), reference compound]"
value = 5.34

[[record]]
compound = "[2H]C([2H])(Oc1ccc2c(c1)[C@]13CCCC[C@@H]1[C@H](C2)NCC3)C(F)F [N-desmethyl CNS1-D2]"
value = 5.51


Proceeding to the next compound to report its pKi.
## Input Name the reported pKi value associated with the compound CN1CC[C@@]23CCCC[C@@H]2[C@@H]1Cc1ccc(O)cc13 [Dextorphan (DX), reference compound]
## Output 5.95

* * *

experiment: Caco-2 bidirectional permeability assay
Assay type: in vitro ADME
reported.conditions: human, 1 μM, basolateral to apical
# Papp B→A at 1 μM values compiled below
The figure you give is taken to be in ×10⁻⁶ cm/s; do not add the unit.

Observe how each entry below is paired with its result.
[[record]]
compound = "[2H]C([2H])(Oc1ccc2c(c1)[C@]13CCCC[C@@H]1[C@H](C2)N(CCOC)CC3)C(F)F [CNS27-D2]"
value = 13.1

[[record]]
compound = "[2H]C([2H])(Oc1ccc2c(c1)[C@]13CCCC[C@@H]1[C@H](C2)N(C([2H])([2H])[2H])CC3)C(F)F"
value = 15.4

[[record]]
compound = "[2H]C([2H])(Oc1ccc2c(c1)[C@]13CCCC[C@@H]1[C@H](C2)NCC3)C(F)F [N-desmethyl CNS1-D2]"
value = 10.1


Here is the next item to consider.
## Input Could you share which Papp B→A at 1 μM value was measured for COc1ccc2c(c1)[C@]13CCCC[C@@H]1[C@H](C2)N(C)CC3 [Dextromethorphan (DM), reference compound] ?
## Output 14.2

* * *

Listing of recorded Papp A→B at 0.1 μM by entry.
experiment: Caco-2 bidirectional permeability assay
Assay type: in vitro ADME
reported.conditions: human, 0.1 μM, apical to basolateral
Description: The human colon carcinoma cell Caco-2 provides a well-established and effective model for predicting intestinal absorption of chemicals, and in determining the mechanism of transport. […] The method is used to assess the bidirectional permeability of a test compound, from the apical to the basolateral side (A-B) of a Caco-2 cell monolayer membrane, and vice versa (B-A). R. B. van Breemen, Y. Li, “Caco-2 cell permeability assays to measure drug absorption,” Expert Opin. Drug Metab. […]
Response body: numeric value in ×10⁻⁶ cm/s, unit text excluded.

Check out these entries, answers already filled in.
[[record]]
molecule = "[2H]C([2H])(Oc1ccc2c(c1)[C@]13CCCC[C@@H]1[C@H](C2)N(CCOC)CC3)C(F)F [CNS27-D2]"
uom = "×10⁻⁶ cm/s"
value = 10.2

[[record]]
molecule = "[2H]C([2H])(Oc1ccc2c(c1)[C@]13CCCC[C@@H]1[C@H](C2)N(C([2H])([2H])[2H])CC3)C(F)F"
uom = "×10⁻⁶ cm/s"
value = 14.4

[[record]]
molecule = "COc1ccc2c(c1)[C@]13CCCC[C@@H]1[C@H](C2)N(C)CC3 [Dextromethorphan (DM), reference compound]"
uom = "×10⁻⁶ cm/s"
value = 15.9


Now for the molecule whose Papp A→B at 0.1 μM we want.
## Input # query: Papp A→B at 0.1 μM of entry [2H]C([2H])(Oc1ccc2c(c1)[C@]13CCCC[C@@H]1[C@H](C2)NCC3)C(F)F [N-desmethyl CNS1-D2]
## Output 9.71

* * *

experiment: Drug stability in human liver microsomes
Assay type: in vitro ADME
reported.conditions: 1 hour
outcome.measure: % decomposition at 1 hour (%)
Give your result in % as a bare value.

[[record]]
compound = "COc1ccc2c(c1)[C@]13CCCC[C@@H]1[C@H](C2)N(C)CC3 [Dextromethorphan (DM), reference compound]"
uom = "%"
value = 69

[[record]]
compound = "CN1CC[C@@]23CCCC[C@@H]2C1Cc1ccc(OCCF)cc13"
uom = "%"
value = 15.4

[[record]]
compound = "CN1CC[C@@]23CCCC[C@@H]2C1Cc1ccc(OCC(F)F)cc13"
uom = "%"
value = 6.1

[[record]]
compound = "COc1ccc2c(c1)[C@]13CCCCC1C(C2)N(Cc1cccnc1)CC3 (some centres unmarked)"
uom = "%"
value = 98.4

[[record]]
compound = "[2H]C([2H])(Oc1ccc2c(c1)[C@]13CCCC[C@@H]1[C@H](C2)NCC3)C(F)F [N-desmethyl CNS1-D2]"
uom = "%"
value = 10.1


## Input I would be grateful if you could share the reported % decomposition at 1 hour for CN1CC[C@@]23CCCC[C@@H]2[C@@H]1Cc1ccc(O)c(Br)c13 .
## Output 56

## Input Please look up its % decomposition at 1 hour: [2H]C([2H])(Oc1ccc2c(c1)[C@]13CCCC[C@@H]1[C@H](C2)N(C([2H])([2H])[2H])CC3)C(F)F
## Output 9.7

## Input Entry under review: CN1CC[C@@]23CCCC[C@@H]2[C@@H]1Cc1ccc(OCc2ccncc2)cc13 . Reported % decomposition at 1 hour?
## Output 100

* * *

experiment: Caco-2 bidirectional permeability assay
Format: in vitro ADME
Set-up: dose or concentration left out as unconfirmed
reported.conditions: human, apical to basolateral
outcome.measure: Papp A→B

## Input Could you tell me which Papp A→B is on file for CC(C)NCC(O)COc1cccc2ccccc12 (stereo not shown) [Propranolol, reference compound] ?
## Output 21.2 ×10⁻⁶ cm/s

* * *

measured.target: human recombinant hERG (Homo sapiens (Human), UniProt Q12809)
Sequence (Q12809 whole entry, looked up): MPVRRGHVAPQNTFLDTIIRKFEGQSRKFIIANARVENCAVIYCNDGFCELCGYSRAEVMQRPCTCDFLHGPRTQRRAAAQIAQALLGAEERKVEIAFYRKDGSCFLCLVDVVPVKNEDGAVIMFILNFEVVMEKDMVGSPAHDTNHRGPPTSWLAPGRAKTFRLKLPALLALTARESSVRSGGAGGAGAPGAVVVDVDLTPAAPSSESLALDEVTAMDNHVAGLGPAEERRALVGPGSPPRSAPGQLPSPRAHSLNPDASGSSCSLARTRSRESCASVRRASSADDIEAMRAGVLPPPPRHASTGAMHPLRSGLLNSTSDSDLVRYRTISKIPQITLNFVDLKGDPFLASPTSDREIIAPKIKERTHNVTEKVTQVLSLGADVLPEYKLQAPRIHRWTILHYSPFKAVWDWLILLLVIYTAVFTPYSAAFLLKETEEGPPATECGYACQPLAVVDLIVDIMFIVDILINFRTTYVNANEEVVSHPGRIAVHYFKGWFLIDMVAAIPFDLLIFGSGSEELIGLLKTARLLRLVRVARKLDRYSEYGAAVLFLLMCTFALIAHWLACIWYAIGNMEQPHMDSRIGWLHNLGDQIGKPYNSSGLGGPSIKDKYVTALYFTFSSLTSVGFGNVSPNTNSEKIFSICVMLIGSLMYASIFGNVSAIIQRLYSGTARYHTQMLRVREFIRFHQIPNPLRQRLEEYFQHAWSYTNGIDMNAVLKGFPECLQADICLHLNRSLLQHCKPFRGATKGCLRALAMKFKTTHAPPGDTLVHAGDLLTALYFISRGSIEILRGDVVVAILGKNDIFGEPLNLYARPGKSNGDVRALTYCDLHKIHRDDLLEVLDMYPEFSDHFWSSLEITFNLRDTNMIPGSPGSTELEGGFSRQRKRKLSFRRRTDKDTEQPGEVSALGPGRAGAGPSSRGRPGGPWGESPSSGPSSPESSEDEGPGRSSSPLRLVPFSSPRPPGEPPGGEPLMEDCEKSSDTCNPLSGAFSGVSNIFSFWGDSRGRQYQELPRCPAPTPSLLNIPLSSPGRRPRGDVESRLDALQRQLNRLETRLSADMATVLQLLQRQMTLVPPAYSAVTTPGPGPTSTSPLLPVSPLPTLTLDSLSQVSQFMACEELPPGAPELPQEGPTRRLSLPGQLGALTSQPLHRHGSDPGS
experiment: hERG radioligand (3H-astemizole) binding assay
outcome.measure: pKi
Remember, pKi is on a log scale: it is -log10 of the molar concentration.

[[record]]
compound = "[2H]C([2H])(Oc1ccc2c(c1)[C@]13CCCC[C@@H]1[C@H](C2)N(CCOC)CC3)C(F)F [CNS27-D2]"
value = 5.32

[[record]]
compound = "COc1ccc2c(c1)[C@]13CCCC[C@@H]1[C@H](C2)N(C)CC3 [Dextromethorphan (DM), reference compound]"
value = 4.97

[[record]]
compound = "[2H]C([2H])(Oc1ccc2c(c1)[C@]13CCCC[C@@H]1[C@H](C2)N(C([2H])([2H])[2H])CC3)C(F)F"
value = 5.13


# next compound below
## Input GET /values?readout=pKi&system=human recombinant hERG (Homo sapiens (Human), UniProt Q12809)&item= [2H]C([2H])(Oc1ccc2c(c1)[C@]13CCCC[C@@H]1[C@H](C2)NCC3)C(F)F [N-desmethyl CNS1-D2]
## Output 5.24

* * *

We begin with a simple list: items and their reported IC50.
measured.target: sigma-1 receptors (Homo sapiens (Human))
Sequence (Q99720 whole entry, looked up): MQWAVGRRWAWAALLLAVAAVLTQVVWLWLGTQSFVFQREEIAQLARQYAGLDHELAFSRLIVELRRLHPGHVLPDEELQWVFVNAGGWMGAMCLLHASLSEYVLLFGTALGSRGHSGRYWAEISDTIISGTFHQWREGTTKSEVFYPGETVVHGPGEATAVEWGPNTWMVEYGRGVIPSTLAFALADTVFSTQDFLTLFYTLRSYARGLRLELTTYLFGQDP
experiment: biochemical
Format: binding
Give the value, in units of nM, as a plain number.

[[record]]
compound = "COc1ccc2c(c1)[C@]13CCCC[C@@H]1[C@H](C2)N(C)CC3 [Dextromethorphan (DM), reference compound]"
measured_target = "sigma-1 receptors (Homo sapiens (Human))"
value = 137


Next compound, IC50 to be filled in.
## Input Any idea what its IC50 is? The compound is C=CCN(C)CC[C@@]12CCCC[C@@H]1C=Cc1ccc(OC)cc12 [CNS22]
## Output 29.1

* * *

experiment: Caco-2 bidirectional permeability assay
Type: in vitro ADME
reported.conditions: human, 1 μM, apical to basolateral
outcome.measure: Papp A→B at 1 μM (×10⁻⁶ cm/s)
Field: numeric (×10⁻⁶ cm/s). Do not append units.

Here are 3 compounds together with their reported answers.
[[record]]
compound = "[2H]C([2H])(Oc1ccc2c(c1)[C@]13CCCC[C@@H]1[C@H](C2)N(C([2H])([2H])[2H])CC3)C(F)F"
outcome_measure = "Papp A→B at 1 μM"
uom = "×10⁻⁶ cm/s"
value = 18.4

[[record]]
compound = "[2H]C([2H])(Oc1ccc2c(c1)[C@]13CCCC[C@@H]1[C@H](C2)N(CCOC)CC3)C(F)F [CNS27-D2]"
outcome_measure = "Papp A→B at 1 μM"
uom = "×10⁻⁶ cm/s"
value = 11.6

[[record]]
compound = "COc1ccc2c(c1)[C@]13CCCC[C@@H]1[C@H](C2)N(C)CC3 [Dextromethorphan (DM), reference compound]"
outcome_measure = "Papp A→B at 1 μM"
uom = "×10⁻⁶ cm/s"
value = 19


Next:
## Input Need Papp A→B at 1 μM of [2H]C([2H])(Oc1ccc2c(c1)[C@]13CCCC[C@@H]1[C@H](C2)NCC3)C(F)F [N-desmethyl CNS1-D2] , thanks.
## Output 10.8
